study-target: Methionine aminopeptidase (Plasmodium falciparum Santa Lucia)
Sequence (W7G645 whole entry): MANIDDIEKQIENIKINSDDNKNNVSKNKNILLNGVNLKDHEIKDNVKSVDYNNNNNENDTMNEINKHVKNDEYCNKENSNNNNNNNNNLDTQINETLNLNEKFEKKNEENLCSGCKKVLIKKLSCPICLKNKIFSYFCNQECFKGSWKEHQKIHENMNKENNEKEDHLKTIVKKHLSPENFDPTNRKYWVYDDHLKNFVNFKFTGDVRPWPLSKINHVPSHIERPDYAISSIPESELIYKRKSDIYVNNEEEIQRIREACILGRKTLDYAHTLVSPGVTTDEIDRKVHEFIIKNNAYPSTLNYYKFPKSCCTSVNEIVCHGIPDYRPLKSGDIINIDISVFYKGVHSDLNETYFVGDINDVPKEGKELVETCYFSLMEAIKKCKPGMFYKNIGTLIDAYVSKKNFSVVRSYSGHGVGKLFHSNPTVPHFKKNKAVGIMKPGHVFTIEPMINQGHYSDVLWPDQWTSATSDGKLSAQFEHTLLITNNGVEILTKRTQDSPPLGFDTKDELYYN
endpoint-label: IC50

(Q) Which IC50 is listed for CO[C@@H]1[C@H](OC(=O)NC(=O)CCl)CC[C@]2(CO2)[C@H]1[C@@]1(C)O[C@@H]1CC=C(C)C ?
(A) > 300 µM
